The reported numbers originate from PubChem BioAssay.

Test system: Lefty1
assay.name: Lefty1 protein binding to printed compounds – biochemical, small-molecule microarray, 635/667 nm fluorescence, primary screen (AID 1139)
test.parameters: fluorescence 635/667, higher = more signal
Kindly return Criterion met if reported composite z-score is no lower than -0.4; return Criterion not met if it is lower.

{"columns": ["compound", "class.label"],
 "data": [
  ["O=C(NCC(F)(F)F)[C@@H]1c2ccccc2C(=O)N(Cc2ccccc2)[C@H]1c1ccc(CO)cc1", "Criterion not met"],
  ["C=CCOC(=O)[C@@H]1[C@H]2C(=O)O[C@H](c3ccccc3)[C@H](c3ccccc3)N2[C@H](c2ccc(OCCOC(=O)[C@H]3C[C@H]4C(=O)N[C@@H](Cc5ccccc5)C(=O)N4[C@H]3c3ccc(O)cc3)cc2)[C@@]12C(=O)Nc1ccc(I)cc12", "Criterion met"]
]}

Qu. Reported composite z-score at or above -0.4? O=C1C2C=CC(C(O)CCc3ccccc3)N(Nc3ccccc3)C2C(=O)N1c1ccccc1 (stereo not given)
Ans. Criterion met

Qu. Evaluate COCCCNC(=O)[C@]1(Cc2ccccc2N=[N+]=[N-])N=C(c2ccc(OCCCO)cc2)O[C@@H]1c1ccccc1CN=[N+]=[N-] : composite z-score at minimum -0.4?
Ans. Criterion met

Qu. State whether the measured composite z-score reaches -0.4, counting equality as reaching it, for CCN(CC)c1ccc(N2CC=CC34O[C@@H]5/C=C\CCC(C)OC(=O)C5[C@H]3C(=O)N(CCCCCCO)[C@@H]4C2=O)cc1 (stereo not given in full)
Ans. Criterion not met

Qu. Given COc1ccc([Si](C)(C)[C@H]2[C@H](CCO)O[C@@]3(C(=O)N(Cc4ccccc4)c4ccc(N5C(=O)COc6ccccc65)cc43)[C@@H]2C)cc1 , state whether its composite z-score is at least -0.4.
Ans. Criterion met

Qu. Determine whether this compound has composite z-score no lower than -0.4: Cc1ccc([C@H]2C(C(=O)O)=C[C@@H](C(C)C)N2S(=O)(=O)c2ccc(C)cc2)cc1
Ans. Criterion met

Qu. Item COC(=O)[C@@]1(Cc2ccc(OC)cc2)[C@H]2c3cc(C(=O)N(C)C)n(Cc4ccc(OC)c(OC)c4)c3C[C@H]2CN1C(=O)c1ccccc1 with composite z-score of -0.4 or above?
Ans. Criterion met

Qu. Does composite z-score meet or surpass -0.4 for CCN(CC)c1ccc(N2CC=CC34O[C@@H]5C=CCOC(=O)[C@@H]5[C@H]3C(=O)N(CCCCCO)[C@@H]4C2=O)cc1 (stereo not given in full) ?
Ans. Criterion not met

Qu. For this compound, is measured composite z-score -0.4 or higher? O=C1c2ccccc2[C@@]2(Cc3ccccc3N(Cc3ccccc3)C2=O)[C@H](c2ccc(CO)cc2)N1Cc1ccccc1C(F)(F)F
Ans. Criterion not met

Qu. Quick check: does NC(=O)NCC#Cc1ccc2c(c1)[C@]1(C(=O)N2)[C@H](c2ccc(O)cc2)N2[C@H](c3ccccc3)[C@H](c3ccccc3)OC(=O)[C@H]2[C@@H]1C(=O)N1CCN(c2ncccn2)CC1 have composite z-score greater than or equal to -0.4?
Ans. Criterion met

Qu. In plain terms: is recorded composite z-score at least -0.4 for C=CCC(OC(C)=O)[C@@H]1[C@@H](N(Cc2ccc(-c3ccccc3)cc2)C(=O)c2ccc(C)cc2)c2cc(OCCCO)ccc2N1C(=O)c1ccc2ccccc2n1 (stereo not given in full) ?
Ans. Criterion met

Qu. Tell me whether composite z-score is at least -0.4 here: CS(=O)(=O)CCOC(=O)C1=CC(c2ccc(CO)cc2)=CC(c2cccs2)N(Cc2cccc(OC(F)(F)F)c2)C=C1C(=O)OCCS(C)(=O)=O (stereo not given)
Ans. Criterion met

Qu. // inclusive: composite z-score at least -0.4? input: [N-]=[N+]=NCc1ccccc1C[C@@]1(C(=O)NCc2ccccc2)N=C(c2ccc(OCCCO)cc2)O[C@@H]1c1ccccc1CN=[N+]=[N-]
Ans. Criterion not met

Qu. Is it the case that O=C1OCC=C[C@H]2OC34C=CCN(c5ccc(Cl)cc5)C(=O)[C@H]3N(CCCO)C(=O)[C@@H]4[C@@H]12 (stereo not given in full) has composite z-score reaching or exceeding -0.4?
Ans. Criterion not met

---

assay.name: probe aEGFR binding to arrayed compounds – biochemical, biotinylated probe, 635/667 nm fluorescence, primary screen (AID 1097);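 note: probe is a biotinylated anti-EGFR antibody binding compounds printed on slides; score combines fluorescence near 667 nm and signal to noise of each spot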
test.parameters: small-molecule microarray, higher = more signal
// composite z-score lookup, one value per entry
Enter a number only.

Qu. Please give measured composite z-score of the following entry: O=C1OCC=C[C@H]2OC34C=CCN(c5ccc6ccccc6c5)C(=O)[C@H]3N(CCO)C(=O)[C@@H]4[C@@H]12 (some centres undefined)
Ans. -0.281

Qu. State, in one line, measured composite z-score of [N-]=[N+]=NCc1ccccc1C[C@]1(C(=O)NCCN2CCOCC2)N=C(c2ccc(OCCCO)cc2)O[C@H]1c1ccccc1CN=[N+]=[N-]
Ans. 0.0278

Qu. Identify measured composite z-score corresponding to O=C1OCC=C[C@H]2OC34C=CCN(Cc5ccccc5)C(=O)[C@H]3N(CCCO)C(=O)[C@@H]4[C@@H]12 (some centres undefined)
Ans. -0.0703

Qu. Identify composite z-score associated with the compound CCCNC(=O)[C@@]1(C)c2ccccc2C(=O)N(Cc2cc(C(F)(F)F)cc(C(F)(F)F)c2)[C@H]1c1ccc(CO)cc1
Ans. -0.137

Qu. Report measured composite z-score; entry is COC(=O)[C@@]1(Cc2ccc(F)cc2)[C@H]2c3cc(C(=O)N(C)C)n(Cc4ccccn4)c3C[C@H]2CN1C(=O)c1ccccc1
Ans. 0.533

---

assay.name: small molecules captured by biotinylated probe aFGF2 – biochemical, small-molecule microarray, fluorescence 635/667, stem cell growth factor project, primary screen (AID 1067);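 note: measures binding of biotinylated aFGF2 protein to printed compounds on slides; z-score merges feature fluorescence and signal-to-noise across triplicate slides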
test.parameters: higher = more signal
Answer F if composite z-score is under -0.08, and T if it is -0.08 or more.

Qu. Quick check: does COc1ccc([Si](C)(C)[C@@H]2[C@@H](CC(=O)N3Cc4ccccc4C[C@H]3CO)O[C@]3(C(=O)N(Cc4cccc(N5C(=O)COc6ccccc65)c4)c4ccccc43)[C@H]2C)cc1 have composite z-score greater than or equal to -0.08?
Ans. F

Qu. In plain terms: is recorded composite z-score at least -0.08 for O=C1OCCC/C=C\[C@H]2OC34C=CCN(CCN5CCOCC5)C(=O)[C@H]3N(CCO)C(=O)[C@@H]4C12 (stereo not given in full) ?
Ans. F

Qu. Could you verify whether the entry CC[C@@H]1C=C(C(=O)O)[C@H](c2ccc(C(C)C)cc2)N1S(=O)(=O)c1ccc(C)cc1 shows composite z-score of no less than -0.08?
Ans. T

---

assay.name: probe aShh binding to arrayed compounds – biochemical, biotinylated probe, 635/667 nm fluorescence, primary screen (AID 1114);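 note: probe is biotin-labelled aShh protein from a stem cell growth factor screen; measures binding of labelled protein to compounds printed on the slide; score merges feature fluorescence at 667 nm with signal-to-noise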
test.parameters: small-molecule microarray, higher = more signal
Let's look at some compounds and their measured composite z-score.
// no unit, no text: just the number

Qu. Give composite z-score for C=C(CCCC)C(=O)CC[C@H](OC(C)=O)c1ccc(CO)o1
Ans. 0.13

Qu. Annotate the compound O=C(NCc1ccccc1)[C@@H]1c2ccccc2C(=O)N(Cc2cc(F)cc(C(F)(F)F)c2)[C@H]1c1ccc(CO)cc1 with its measured composite z-score.
Ans. 0.163

Qu. Output measured composite z-score for this item: CC1CC/C=C\[C@H]2OC34C=CCN(CCN5CCOCC5)C(=O)[C@H]3N(CCCCCO)C(=O)[C@@H]4C2C(=O)O1 (stereo not given in full)
Ans. -0.0769

Qu. Supply recorded composite z-score for O=C1c2ccccc2[C@](Cc2ccccc2I)(C(=O)O)[C@H](c2ccc(CO)cc2)N1Cc1ccccc1C(F)(F)F here.
Ans. -0.0382

Qu. Look up composite z-score of CC(=O)n1cc(C(O)C2C=CC3C(=O)N(c4ccccc4)C(=O)C3N2Nc2ccc(C#N)cc2)c2ccccc21 (stereo not given) and report it.
Ans. 0.385

---

assay.name: blood-stage malaria parasite viability loss – strain 3D7, DAPI fluorescence, 100 nL, primary screen (AID 1184);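 note: parasites grown inside human red blood cells in medium with human serum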
test.parameters: P. falciparum 3D7 growth, 3 d, higher = more signal
Rule: z-score of -2 or more gives 1.0; anything lower gives 0.0.

Answered cases to consult:
{"columns": ["molecule", "class.label"],
 "data": [
  ["CC(C)(C)OC(=O)CC[C@@]1(C(=O)NCC(O)CO)N=C(c2ccc(OCCCO)cc2)O[C@@H]1c1ccccc1 (stereo partly drawn)", 1.0],
  ["C=CC[C@]1(C(=O)O)N=C(c2ccc(OCCCO)cc2)O[C@H]1c1ccccc1CN=[N+]=[N-]", 1.0],
  ["COc1ccc([Si](C)(C)[C@H]2[C@H](CC(=O)N3Cc4ccccc4C[C@H]3CO)O[C@@]3(C(=O)N(Cc4cccc(I)c4)c4ccccc43)[C@@H]2C)cc1", 0.0]
]}

Qu. Textbook exercise: given the entry COC(=O)[C@@]1(Cc2ccc(OC)cc2)[C@H]2c3cc(C(=O)N(C)C)n(Cc4ccc(OC)c(OC)c4)c3C[C@H]2CN1C(=O)c1ccccc1 , state whether its z-score is greater than or equal to -2.
Ans. 1.0

Qu. Reported z-score reaches at least -2 for COc1ccccc1CN1C(=O)c2ccccc2[C@](Cc2ccccc2I)(C(=O)NC2CC2)[C@@H]1c1ccc(CO)cc1 ?
Ans. 0.0

Qu. Form field: z-score at least -2? Entry: [N-]=[N+]=NCc1ccccc1[C@H]1OC(c2ccc(OCCCO)cc2)=N[C@@]1(Cc1ccccc1)C(=O)NCC(O)CO (stereo partly drawn)
Ans. 0.0

Qu. I'd appreciate it if you could say whether C=CCN1C(=O)[C@]2(COC(c3ccc(OCCCO)cc3)=N2)Cc2ccccc21 has z-score at least equal to -2.
Ans. 0.0

Qu. Is it the case that C=CC[C@@]1(C(=O)OC)N=C(c2ccc(OCCCO)cc2)O[C@@H]1c1ccccc1CN=[N+]=[N-] has z-score reaching or exceeding -2?
Ans. 0.0
